Just for reference, paper PMC11459967 is where these values come from.

Observed pIC50, system SARS-CoV-2 Mpro (Severe acute respiratory syndrome coronavirus 2).
To interpret pIC50, take it as minus log10 of a concentration measured in moles per litre.

Example results:
Q) Which measured pIC50 belongs to COc1cccc2[nH]c(C(=O)N[C@@H](CC(C)C)C(=O)N[C@@H](C[C@@H]3CCNC3=O)C(=O)COC(=O)c3c(Cl)cccc3Cl)cc12 [Compound 18, reference compound] , tested on SARS-CoV-2 Mpro (Severe acute respiratory syndrome coronavirus 2)?
A) 7.96

Q) Give SARS-CoV-2 Mpro (Severe acute respiratory syndrome coronavirus 2) pIC50 for O=C(CN1C(=O)[C@@H](NC(=O)OCc2ccccc2)COc2ccccc21)N[C@@H](C[C@@H]1CCNC1=O)C(=O)COc1cc(C(F)(F)F)nn1-c1ccc(F)cc1
A) 5.51

Q) Form field: pIC50 recorded for CC(C)C[C@H](NC(=O)OCc1ccccc1)C(=O)N[C@@H](C[C@@H]1CCNC1=O)C(O)S(=O)(=O)O (stereo partly drawn) [GC-376, reference compound] with SARS-CoV-2 Mpro (Severe acute respiratory syndrome coronavirus 2) (enter value)
A) 7.74

Q) Request: pIC50, test system SARS-CoV-2 Mpro (Severe acute respiratory syndrome coronavirus 2), entry O=C(CN1C(=O)[C@@H](NC(=O)c2ccccc2)COc2ccccc21)N[C@@H](C[C@@H]1CCNC1=O)C(=O)COC(=O)c1c(Cl)cccc1Cl
A) 6.21

Q) Any idea what pIC50 came out for O=C(CN1C(=O)C(NC(=O)OCc2ccccc2)COc2ccccc21)NC(CC1CCNC1=O)C(=O)COC(=O)c1c(Cl)cccc1Cl (stereo not drawn) on SARS-CoV-2 Mpro (Severe acute respiratory syndrome coronavirus 2)?
A) 6.64

Others:
Q) Request - read-out pIC50 | tested on SARS-CoV-2 Mpro (Severe acute respiratory syndrome coronavirus 2) | compound O=C(CN1C(=O)[C@@H](NC(=O)c2ccc3ccccc3n2)COc2ccccc21)N[C@@H](C[C@@H]1CCNC1=O)C(=O)COC(=O)c1c(Cl)cccc1Cl
A) 6.24
